src = patent US20210355194A1

Target: SARS-CoV-2 membrane protein on expressing cells (SARS-CoV-2, UniProt P0DTC5 1-222)
measured quantity: MFI Ratio
Respond numerically, and do not add a unit to the figure.

Identify measured MFI Ratio associated with 9-3 (VHH) VHH: EVQLVESGGGLVQPGGSLRLSCAASGRTFSRYAMGWFRQAPGKEREFVAAISRSGKSTYYADSVKGRFTISADNSKNTAYLQMNSLKPEDTAVYYCAASSVFSDLRYRKNPKWGQGTLVTVSS 1.61

Read the entry 10-28 (VHH) VHH: EVQLVESGGGLVQPGGSLRLSCAASGSIFSIGMGWFRQAPGKEREFVARIWWRSGATYYADSVKGRFTISADNSKNTAYLQMNSLKPEDTAVYYCAAISIFGRLKWGQGTLVTVSS and write its reported MFI Ratio. 2.06

Give the measured MFI Ratio for 10-19 (VHH) VHH: EVQLVESGGGLVQPGGSLRLSCAASGRTFRSYGMGWFRQAPGKEREFVASISRSGTTMYADSVKGRFTISADNSKNTAYLQMNSLKPEDTAVYYCARRGLLQWFGAPNSWFDPWGQGTLVTVSS 1.54

Fill in MFI Ratio for record 9-10 (VHH) VHH: EVQLVESGGGLVQPGGSLRLSCAASGRMFSSRSMGWFRQAPGKEREFVALINRSGGSQFYADSVKGRFTISADNSKNTAYLQMNSLKPEDTAVYYCAARRWIPPGPIWGQGTLVTVSS 1.52
